- System: Escherichia coli
- PROTOCOL: Antibacterial activity against Escherichia coli O157:H7 CICC 21530 assessed as bacterial growth inhibition incubated for 18 to 24 hrs in presence of 6 mM NH4Cl by microtiter broth dilution method (reference value: 0.85 to > 71.5 uM)
- Type: functional
- PARTICULARS: time 18-24 hrs
Recorded MIC, one value per entry.

Observed MIC on Escherichia coli for H-WGRAFSAGVHRLANGGNG-NH2 , please.
> 70.1 µM

Here is the next substance: H-WLRAFRRLVRRLARLLRR-NH2
> 53.2 µM

Try the substance H-WGEAFSAGVHRLANGGNG-NH2
> 71.2 µM

###

- PROTOCOL: Therapeutic index, ratio of MHC10 for human RBC to geometric mean of peptide MIC for Escherichia coli O157:H7 CICC 21530
- Format: toxicity
- PARTICULARS: human red blood cells (RBC), pooled result: one value given for 11 cell lines, strains, targets or settings, read-out: TI
Please mark met if the recorded selectivity ratio is equal to or greater than 4, and not met if it falls below.

H-WLRAFRRLVRRLARLLRR-NH2 : met
H-WGRAFRRGVRRLARGGRR-NH2 : met
H-WGEAFSAGVHRLANGGNG-NH2 : not met

Tell me whether selectivity ratio is at least 4 here: H-WGRAFSRGVRRLARGGRG-NH2
met

Same read-out for H-WGRAFSAGVHRLARGGRG-NH2 ?
not met

###

- System: Micrococcus luteus
- PROTOCOL: Antibacterial activity against Micrococcus luteus CMCC 28001 assessed as bacterial growth inhibition incubated for 18 to 24 hrs by microtiter broth dilution method
- Assay type: functional
- PARTICULARS: time 18-24 hrs
MEASURED ATTRIBUTE: MIC

Example entries begin here.
H-WGEAFSAGVHRLANGGNG-NH2 : > 71.2 µM
H-WGRAFSAGVHRLARGGRG-NH2 : > 67 µM
H-WGRAFSRGVRRLARGGRG-NH2 : > 63.5 µM

Next substance, please.
Endpoint output: MIC of H-WGRAFSAGVHRLANGGNG-NH2 . Value?
> 70.1 µM

###

- System: Escherichia coli
- PROTOCOL: Antibacterial activity against Escherichia coli O157:H7 CICC 21530 assessed as bacterial growth inhibition incubated for 18 to 24 hrs in presence of 4.5 mM KCl by microtiter broth dilution method (reference value: 0.85 to > 71.5 uM)
- Assay type: functional
- PARTICULARS: time 18-24 hrs
Lab note - cut at 2 µM for MIC: True if strictly below, False if not.

H-WGRAFRRLVRRLARGLRR-NH2 : False

# TODO verify MIC < 2 µM strictly for this substance: H-WGRAFSRGVRRLARGGRG-NH2
False

Follow-up item: H-WLRAFRRLVRRLARLLRR-NH2
True

What would you report for H-WLRAFRRLVRRLARGLRR-NH2 ?
True

What would you report for H-WGEAFSAGVHRLANGGNG-NH2 ?
False

Proceed to H-WGRAFSAGVHRLARGGRG-NH2
False

H-WGRAFSAGVHRLANGGNG-NH2 ?
False

###

- System: Salmonella paratyphi
- PROTOCOL: Antibacterial activity against Salmonella paratyphi C CICC 21512 assessed as bacterial growth inhibition incubated for 18 to 24 hrs by microtiter broth dilution method
- Type: functional
- PARTICULARS: Salmonella enterica, time 18-24 hrs
MEASURED ATTRIBUTE: MIC

Observe how each entry below is paired with its result.
H-WGEAFSAGVHRLANGGNG-NH2 : > 71.2 µM
H-WGRAFSAGVHRLARGGRG-NH2 : > 67 µM

Proceed to the following item.
Please report the recorded MIC for H-WGRAFSAGVHRLANGGNG-NH2 .
> 70.1 µM
